biological target: T1, human PD-L1^ECD-hFc protein (human, UniProt Q9NZQ7 19-239, biotinylated in the PD-1 binding ELISA (Table 3) and in the Octet assay (Table 12)); test: BLI Octet Red 96, biotinylated PD-L1-hFc on SA sensor
T1 construct: The plain and the biotinylated protein are kept as one molecule; also called PD-L1-hFc; Immunogen A; not shown: human IgG Fc fragment (hFc)
T1 sequence (Q9NZQ7 19-239): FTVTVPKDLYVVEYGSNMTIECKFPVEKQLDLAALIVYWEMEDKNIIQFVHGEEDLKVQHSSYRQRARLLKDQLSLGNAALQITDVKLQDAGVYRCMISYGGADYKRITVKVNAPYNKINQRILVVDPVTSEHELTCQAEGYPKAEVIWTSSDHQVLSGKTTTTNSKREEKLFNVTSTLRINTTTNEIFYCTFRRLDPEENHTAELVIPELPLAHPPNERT
metric_name: kon (M⁻¹ s⁻¹)
Response body: numeric value in M⁻¹ s⁻¹, unit text excluded.

- chimeric anti-PD-L1 antibody 78A11F6 (antibody, V domains shown, Purified from hybridoma of Harbour H2L2 mice: human variable regions, rat constant regions) VH: EVQLVESGGGLVQPGGSLRLSCAASGITFSSYWMSWVRQTPGKGLEWVANIKQDGSEKYYVKSVKGRFTISRDNAKNSLYLQMNSLRAEDTAVYYCVRDRAVPGTGAFDIWGQGTMVIVSS VL: DIQMTQSPSTLSASVGDRVTITCRASQSISNWLAWYQQKPGKAPKLLIYKASSLESGVPSRFSGSGSGTEFTLTISSLQPDDFATYYCQQYDSSLFTFGQGTKLEIK: 245000
- chimeric anti-PD-L1 antibody 127D2F3 (antibody, V domains shown, Purified from hybridoma of Harbour H2L2 mice: human variable regions, rat constant regions) VH: EVQLVESGGGLVQPGGSLRLSCVASGFTFSSYWMSWVRQAPGKGLEWVANIKQDGSEKYYVDSVKGRLTISRDNAKNSLYLQMKSLRAEDTAVYYCARDPIYSSYFDYWGQGILVTVSS VL: DIQMTQSPSSLSASVGDRVTITCRASQSISNYLNWYQQKPGKAPKLLIYAASSLQSGVPSRFSGSGSGTDFTLTISSLQPEDFAAYYCQQSYGIPFTFGPGTKVDIK: 368000
- chimeric anti-PD-L1 antibody 73D3G2 (antibody, V domains shown, Purified from hybridoma of Harbour H2L2 mice: human variable regions, rat constant regions) VH: EVQLVESGGGLVQPGGSLRLSCAASGFTFNTYWMNWVRQAPGRGLEWVANIKQDGGEKYYVDSVKGRFTISRDNAKNSLYLQMNSLRAEDTAMYYCARDGRSWYPDAFDIWGQGTVVTVSS VL: DIQMTQSPSTLSASVGDRVTITCRASQSISTWLAWYQQKLGKAPKLLIYEVSILESGVPSRFSGSGSGTEFTLTISSLQPDDFATYYCQQYHSFSSFGGGTRVEIK: 398000

Let us examine a further case.
Bench note: what kon did chimeric anti-PD-L1 antibody 105C5D7 (antibody, V domains shown, Purified from hybridoma of Harbour H2L2 mice: human variable regions, rat constant regions) VH: EVQLVESGGGLVQPGGSLRLSCAASGFTFSSYWMSWVRQAPGKGLEWVANIKQDGNEKYYVDSVKGRFTISRDNAKNSLYLQMNSLRAEDTAVYYCARNIKWGDAFDIWGQGTMVTVSS VL: DIQMTQSPSSLSASVGDRVTITCRASQSISSYLNWYQQKPGKAPKLLIYAASSLQSGVPSRFSGSGSGTDFTLTISSLQPEDFAIYSCQQSYSIPLTFGGGTKVEIK show?
1.5e+06
